B1: CHCHD3 (parent)
chain: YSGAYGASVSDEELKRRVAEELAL

# Variants of: B1
# measurement_notes: protein stability index of a GFP-peptide fusion (GPS, HEK-293T) (PSI 1-6); higher = more stable;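 further: lentivirally expressed fusions sorted by FACS into six bins by GFP to DsRed ratio, PSI derived from sequencing read proportions per bin multiplied by bin number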
# condition_notes: c terminus: a fixed tail appended
test_readout: protein stability index

INSERT INTO results (sequence_record, val) VALUES
  ('YSGAYGGSVSDEELKRRVAEELAL', 3.43),
  ('YSGAYGASVSDIELKRRVAEELAL', 2.92),
  ('YSGAYGASVSDEELFRRVAEELAL', 2.11);

Hi team, please reply with protein stability index for each item in this list.
1. YRGAYGASVSDEELKRRVAEELAL
2. YSGAYGAKVSDEELKRRVAEELAL
3. YSGAYGASVSDEELKRRVNEELAL
4. YSGAYGASVSDEELKRRVREELAL
5. YSGAYGASVSDEELKRRVQEELAL
6. YSGAYGASVSDEEAKRRVAEELAL

A)
1: 4.62; 2: 3.2; 3: 3.53; 4: 2.95; 5: 2.56; 6: 1.78

Hi team, please reply with protein stability index for each item in this list.
1. YSGAIGASVSDEELKRRVAEELAL
2. YSHAYGASVSDEELKRRVAEELAL
3. YSGAYGASVSTEELKRRVAEELAL
4. YSGAYGASVSDEELKRRVAEELQL
5. YSGAYGASVSDEELKRWVAEELAL
6. YSGAYCASVSDEELKRRVAEELAL
7. YSGAYGASVSIEELKRRVAEELAL
8. YSGAYGASVSDEELHRRVAEELAL

A)
1: 4.44; 2: 4.1; 3: 2.24; 4: 2.58; 5: 2.38; 6: 2.22; 7: 2.29; 8: 2.69

Hi team, please reply with protein stability index for each item in this list.
1. YSGAYQASVSDEELKRRVAEELAL
2. YSGAYGASVFDEELKRRVAEELAL
3. YSGAYGASVSDEELKRRVAEELFL

A)
1: 2.81; 2: 2.64; 3: 2.97
